- experimental.details: 14C assay with IPTG-induced recombinant E. coli cells: 14CO2 captured from [14C]-carboxyl-labeled dicamba
- test.context: induced recombinant E. coli cells, [14C]-carboxyl-labeled dicamba, 14CO2 capture
reported.metric: Dicamba Decarboxylase Activity

24 (protein, Aspergillus niger) MALGKVVLEEAYERPNMKEKSNHEAGLYIAPNDRPRYMRQINDINQERLKLADAHGVGYTIISLTVPGIQGIFDKTEAERVATETNNWAAEQIKNHRDRLGAFACLSMHDPAQAANELRRCVQELGFHGALLCSFQHAGPDGETYLFYDQPKYDVFWKALTELDVPLYIHPAAPTGSILERLYAQRPALIGPPLSFANDVSLHTLGIISNGVFDRFPNLKIIIGHLGEHIPFDFWRIDHWFRDVKKPIADEEGRVMAQKSLYHYFKHNIWLTTSGHFSTPTLKYVVNEIGVDRVLFSVDYPYETTESGCNWWDHDKDAIVEAVGGVDNYYAIGRENAKKLLRLDKFHDSDAR; Low
52 (protein, listed as Streptomyces sp.) MAKIIALEEHFSDPAVAKAGAARAQALSPGFAASYSPASGLPYSPSPEVLENLAEKRLADMDAGGITMQVLSGLSAQTVPADVAPALVAGSNDKAAAAVRAHPDRFAAFAALPTAAPEAAVAELDRSVNELGFVGTLIMGRTEGEFLDAPRFEPILARAAALKVPVFLHPGVPPREITDSNYAAGLPTGIGTRLQTAAWGWHQETAVHFLHLVHSGVLDRYPDLQFILGHWGETIPFYLDRVDEALPQRATGLDRSFHEYFRENVYLAPSGMWSQAQLRFCLETFPLERIVFAVDYPFIGNEGAVPFLEKAELPEADKRKIAHENAERLLGL; High
